target: HIV-1 protease (Human immunodeficiency virus type 1 group M subtype B); assay: biochemical; conditions: 0.2M NaCl; read-out: IC50
quantity.name: pIC50
Remember, pIC50 is on a log scale: it is -log10 of the molar concentration.

Value of pIC50 reported for the compound OC1(CCCCc2ccccc2)CCC(O)(c2ccccc2)CC1 (stereo not shown) is 2.85

###

experiment: physchem
quantity.name: solubility

solubility in this record for O=C(CCCN1CCC(O)(c2ccc(Cl)cc2)C(O)C1)c1ccc(F)cc1 (stereo not drawn) : > 250 µM

solubility measured on O=C(CCCN1CCC(O)(c2ccc(Cl)cc2)CC1)c1ccncc1 = > 500 µM

// recorded solubility for OC1(c2ccc(Cl)cc2)CCN(CCCC(O)(c2ccccc2)c2ccc(-c3ccccc3)cc2)CC1 (stereo not drawn) : < 50 µM

Looking up C#CCC(CC#C)(CCN1CCC(O)(c2ccc(Cl)cc2)CC1)C(=O)c1ccc(F)cc1 , I see its solubility listed as < 100 µM

The compound listed as O=C(CCCN1CCC(O)(c2ccc(Cl)cc2)CC1)c1ccccc1 shows solubility equal to < 250 µM

solubility reading for OC1(c2ccc(Cl)cc2)CCN(CC#CC2(c3ccccc3)CO2)CC1 (stereo not drawn) : > 250 µM

According to the records, this compound C=C(CCCN1CCC(O)(c2ccc(Cl)cc2)CC1)c1ccc(F)cc1 displays solubility of < 200 µM

Reported solubility ( CC[C@H]1CSC(CCCN2CCC(O)(c3ccc(Cl)cc3)CC2)(c2ccc(F)cc2)O1 (stereo partly drawn) ) = > 250 µM

Short answer for O=C(/C=C/CN1CCC(O)(c2ccc(Cl)cc2)CC1)c1ccc(F)cc1 : solubility was > 150 µM

Documented solubility of O=C(C#CCN1CCC(O)(c2ccc(Cl)cc2)CC1)c1cccc(-c2ccccc2)c1 : 100 µM

Entry under test: OC1(c2ccc(Cl)cc2)CCN(CCCC2(c3ccc(F)cc3)OCCS2)CC1 (stereo not drawn) . Its solubility was > 500 µM

Per the record, OC1(c2ccc(Cl)cc2)CCN(CCCC2(c3ccc(F)cc3)SCCCCS2)CC1 has solubility of > 250 µM

The reported value for O=C(CCC[n+]1ccc(-c2ccc(Cl)cc2)cc1)c1ccc(F)cc1 in terms of solubility is > 250 µM

compound C=C(CCC[N+]1([O-])CCC(O)(c2ccc(Cl)cc2)CC1)c1ccc(F)cc1 (stereo not drawn) , solubility observed: 500 µM

Quick note, solubility for CC[C@@H]1CSC(CCCN2CCC(O)(c3ccc(Cl)cc3)CC2)(c2ccc(F)cc2)O1 (stereo partly drawn) landed at > 250 µM

solubility reported for this compound OC1(c2ccc(Cl)cc2)CCN(CCCN(Cc2ccccc2)Cc2ccc(-c3ccccc3)cc2)CC1 : > 500 µM

solubility reported for this compound C[N+]1(CCCC(=O)c2ccc(F)cc2)CCC(O)(c2ccc(Cl)cc2)CC1 (stereo not drawn) : > 250 µM

// recorded solubility for Cc1ccc(C(=O)CCC(c2ccccc2)N2CCC(O)(c3ccc(Cl)cc3)CC2)cc1 (stereo not drawn) : < 25 µM

For O=C(CCCN1CCC(O)(c2ccc(Cl)cc2)CC1)c1cccc(-c2ccccc2)c1 the compound record lists solubility as < 250 µM

# compound ON=C(CCCN1CCC(O)(c2ccc(Cl)cc2)CC1)c1ccc(F)cc1 ; its solubility = > 250 µM

// solubility lookup, compound = CC(CCc1ccccc1)N1CCC(O)(c2ccc(Cl)cc2)CC1 (stereo not drawn) , result: < 500 µM

Given item OC1(c2ccc(Cl)cc2)CCN(CCCC2(c3ccc(F)cc3)SCc3ccccc3CS2)CC1 , the value recorded as its solubility is > 250 µM

solubility reading for OC1(c2ccc(Cl)cc2)CCN(CCCC2(c3ccc(F)cc3)OCCO2)CC1 : > 250 µM

compound O=C(/C=C/C[N+]1([O-])CCC(O)(c2ccc(Cl)cc2)CC1)c1ccc(F)cc1 (stereo not drawn) , solubility observed: 250 µM

Sample OC1(c2ccc(Cl)cc2)CCN(CCN(Cc2ccccc2)Cc2ccccc2)CC1 ; solubility observed: > 500 µM

Sample OC1(c2ccc(Cl)cc2)CCN(CCCC(O)(c2ccccc2)c2cccc(-c3ccccc3)c2)CC1 (stereo not drawn) ; solubility observed: < 500 µM

Record C[C@@H]1SC(CCCN2CCC(O)(c3ccc(Cl)cc3)CC2)(c2ccc(F)cc2)S[C@H]1C (relative stereo) . Reported solubility: < 250 µM

Reported solubility for CC(CCN1CCC(O)(c2ccc(Cl)cc2)CC1)C(=O)c1ccc(F)cc1 (stereo not drawn) was > 500 µM

GET /value?item= CSCC(O)(CCCN1CCC(O)(c2ccc(Cl)cc2)CC1)c1ccc(F)cc1 (stereo not drawn) &field=solubility returns > 500 µM

Item: O=C(CCCN1CCC(O)(c2ccccc2)CC1)c1ccccc1 | solubility: > 500 µM

Lab note: OC1(c2ccc(Cl)cc2)CCN(CCCN(CCc2ccccc2)Cc2ccccc2)CC1 gave solubility of < 500 µM

What the record says about COCCN(CCN1CCC(O)(c2ccc(Cl)cc2)CC1)Cc1ccccc1 : solubility is > 500 µM

So for O=C(CCCN1CCC(O)(c2ccccc2)CC1)c1ccc(F)cc1 , the logged solubility turned out to be > 250 µM

Value of measured solubility for the entry OC1(c2ccc(Cl)cc2)CCN(CCCC2(c3ccc(F)cc3)SCCS2)CC1 : > 250 µM

Reported solubility of OCC1(c2ccccc2)CCN(CCCC2(c3ccc(F)cc3)OCCO2)CC1 : < 50 µM

// solubility lookup, compound = NN=C(CCCN1CCC(O)(c2ccc(Cl)cc2)CC1)c1ccc(F)cc1 , result: > 250 µM
